# assay.notes: reduction of polyQ htt aggregates in cells – imaging, exon1htt(103Q)mCFP cells, high-content imaging, primary screen (AID 483);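 note: compound exposure lasted 3 days before fixation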
# recorded.conditions: exon1htt(103Q)mCFP cell line, aggregate imaging, at 2 µM
Active and inactive are the calls of the source.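 Rule for the calls: active = visual image review flags a hit and inhibition of aggregation exceeds 20%; inconclusive = visual hit but inhibition at or below 20%; inactive = no hit on visual image review.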
Outcomes: active, inactive

>  <compound>
Cc1nc2sc(C(c3ccccc3)N3CCN(c4ccccc4F)CC3)c(O)n2n1 (stereo unspecified)

>  <label>
inactive

$$$$
>  <compound>
Cc1cc(Oc2ccccc2)nc(-c2ccccc2)n1

>  <label>
inactive

$$$$
>  <compound>
COc1ccc(CN(CC(=O)NCC2CCCO2)C(=O)CNS(=O)(=O)c2ccc(C)cc2)cc1 (stereo unspecified)

>  <label>
inactive

$$$$
>  <compound>
COc1ccc(C2=NO[C@@H]3C(=O)N(c4ccc5c(c4)OCCO5)C(=O)[C@H]23)cc1OC

>  <label>
inactive

$$$$
>  <compound>
CCOC(=O)CC1=C(C(=O)OCC)C(c2ccc(C)o2)C(C#N)=C(N)O1 (stereo unspecified)

>  <label>
inactive

$$$$
>  <compound>
c1ccc(Cc2ccc(OCCn3cncn3)cc2)cc1

>  <label>
inactive

$$$$
>  <compound>
Cc1ccccc1CSc1nnc(C)c(=O)[nH]1

>  <label>
inactive

$$$$
>  <compound>
COCCNC(=O)C(c1cccc(OC)c1)N(Cc1cccs1)C(=O)Cn1nnc2ccccc21 (stereo unspecified)

>  <label>
inactive

$$$$
>  <compound>
Cn1cccc1Cc1nnc(SCC(=O)NCC2CCCO2)n1-c1ccc(F)cc1 (stereo unspecified)

>  <label>
active

$$$$
>  <compound>
CN(C)CCCN1C(=O)c2oc3ccccc3c(=O)c2C1c1cccs1 (stereo unspecified)

>  <label>
inactive

$$$$
>  <compound>
c1ccc2c(c1)CNc1ccccc1C2

>  <label>
inactive

$$$$
